Note to self: these compounds have pIC50 reported for Vascular endothelial growth factor receptor 2 (Homo sapiens) in various publications.
pIC50: −log10 of the molar value.
Experimental Readout: pIC50

Study these solved cases before continuing.
O=C1CCCc2cc(-c3ccnc(Nc4ccc(I)cc4)n3)ccc2N1	4.77
Cc1ccc(S(=O)(=O)c2ccc(C3C(C(=O)c4ccccc4)=C(N)NC4=C3C(=O)CC(C)(C)C4)cc2)cc1 (centres unmarked)	9.52
N#Cc1ccc(NC(=O)Nc2ccc(Oc3ncnc4ccsc34)cc2)cc1	6.82
COc1ccc(Nc2cc(Oc3ccc4[nH]ccc4c3)ncn2)cc1N1CCOCC1	7.52
O=C(NNC(=O)C(F)(F)F)c1ccc(NC(=O)c2cccnc2)cc1	5.11

[P] Cc1ccc(NC(=O)c2ccc(NC(=O)CSc3nc4cc(C)ccc4o3)cc2)cc1
[Q] Fc1ccc(NC(=S)Nc2ccc(-c3cccnc3)cc2)cc1F
[R] CNC(=O)c1ccccc1Sc1ccc2c(N=Nc3cccn3C)n[nH]c2c1
[S] O=C(CSc1nc2cc(Cl)ccc2o1)Nc1ccc(C(=O)Nc2ccccc2)cc1
Please list these compounds in decreasing order of pIC50. Thanks in advance for listing the labels in the requested order.
Q, S, P, R

* * *

pIC50: −log10 of the molar value.
Note to self: these molecules have pIC50 reported for Vascular endothelial growth factor receptor 2 (Homo sapiens, UniProt P35968) in various publications.
Experimental Readout: pIC50

Study these solved cases before continuing.
COc1ccc(NC(=O)CN2C(=O)S/C(=C3\C(=O)Nc4ccccc43)C2=O)cc1	7.07
COc1cc2nc(-c3ccc(Cl)cc3)cc(OCCCNCC3CCCO3)c2cc1OC (centres unmarked)	6.31
O=C(Nc1ccc(-c2ccc3c(=O)[nH]cnc3c2)cc1)Nc1ccc(Cl)c(C(F)(F)F)c1	7.80
CCN(CC)CCN1Cc2[nH]c(/C=C3\C(=O)Nc4ccc(S)cc43)c(C)c2C1=O	7.84
CN(c1ccc2[nH]ccc2c1)c1ccnc(Nc2ccc(OCCCCN3CCOCC3)cc2)n1	7.59

[a] COc1cc2nc(-c3ccc(C)cc3)cc(OCCCNC3CCCCC3)c2cc1OC
[b] CC(=O)OC[C@H]1O[C@@H](OCc2cn(CCCOc3ccc4c(-c5ccccc5)cc(=O)oc4c3)nn2)[C@H](OC(C)=O)[C@@H](OC(C)=O)[C@H]1OC(C)=O
Lab log: flag the item ( a or b ) with the smaller pIC50 figure. Answer format: the label of the selected item.
b

* * *

pIC50: −log10 of the molar value.
Note to self: these molecules have pIC50 reported for Vascular endothelial growth factor receptor 2 (Homo sapiens) in various publications.
Experimental Readout: pIC50

Study these solved cases before continuing.
O=C1CCCc2cc(-c3ccnc(Nc4ccccc4)n3)ccc2N1	5.55
S=C(Nc1ccc(-c2cccnc2)cc1)Nc1ccc(Cl)c(Cl)c1	6.45
COc1cc2ncnc(Nc3cc(O)c(F)cc3F)c2cc1OC	8.02
CNC(=S)NNC(=O)c1ccc(N=C2C(=O)Nc3ccc(F)cc32)cc1	6.80

[a] Cc1ccc(C=C2SC(=O)N(CC(=O)Nc3ccc(S(N)(=O)=O)cc3)C2=O)cc1
[b] COc1cc2nc(-c3ccc(Cl)cc3)cc(OCCCNC3CCCCC3)c2cc1OC
[c] COc1ccc(NC(=O)c2ccc(NC(=O)c3cccnc3)cc2)cc1
[d] CC(=O)c1ccc(NC(=O)c2ccc(NC(=O)CSc3nc4cc(C)ccc4o3)cc2)cc1
Please list these molecules in decreasing order of pIC50. Thanks in advance for listing the labels in the requested order.
d, a, c, b
(d: 6.94, a: 6.05, c: 5.46, b: 5.17)
